Origin of the recorded values: the supplement of paper PMC6555819

tested on: PPARg:RXRa (NR concentration 180 nM, RXRa partner concentration 90 nM); experiment: PBM binding z-score (relative to random genomic background probes); higher = stronger binding; sequences stand for … in GC…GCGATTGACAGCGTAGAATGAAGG
value-type: PBM binding z-score
One number for each entry.

# example entries with known answers
CCGACTGGGGCAGAAAGGATACCATACCATCCGG :: 0.937
TCTCCTAGGTCAGTTGGTCAGCTAACGAGCTGCC :: 0.491
GCGACTGGGGCAAAGCAGGTTATCATAAGGTTGG :: 1.29
CAAACTAGGTCAAGGTCATAGTCGGTTTGTGCCA :: 9.25
CCAACTAGGTCAGAACAGGACAGTGAAGGATGAT :: 4.46

Please look at the following sequence next.
Q: Item under review: AAAACGAGGGCAATGAGTTGATAGCACGGGTGGC . Reported PBM binding z-score?
Ans: 2.02

###

test system: PXR homodimer (NR concentration 270 nM); assay: PBM binding z-score (relative to random genomic background probes); higher = stronger binding; sequences stand for … in GC…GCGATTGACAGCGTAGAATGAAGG
PBM binding z-score of -0.07 or higher: Fulfilled. Under -0.07: Not fulfilled.

As a guide, the following entries are already answered.
ATCGAAGGGTCGACGAGGTGAGTATACACCGTTT :: Not fulfilled
ACTATTAGTTGAGACGTGGGCAACCGATAGGTTG :: Not fulfilled
TCATATAGGTAAATGTGAAAGTCGAACGATATGA :: Not fulfilled

Q: Reported PBM binding z-score at or above -0.07? CGAACGAGGGCATGAGTGGATAGCAAATGCCGAT
Ans: Not fulfilled

Q: Would you kindly repeat that for AGTCAAAGTTCAAGACGAGGTAACGTAAAGCACG ?
Ans: Fulfilled

###

test system: PPARa:RXRa (NR concentration 270 nM, RXRa partner concentration 90 nM); assay: PBM binding z-score (relative to random genomic background probes); higher = stronger binding; sequences stand for … in GC…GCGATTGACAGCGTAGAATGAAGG
Quick rule for you: PBM binding z-score at 2 or higher means rule met, lower means rule not met.

// known answers, use as guide
GCTAGTTGGTCAGTAAAAGGTCACACCCCGGTCG :: rule met
TAGCCTAGGTCATGGGCCAGTAGACCACGCGAAC :: rule met
AGAACGAGCGCACGCTGAGTTGATAGCAGAGTAG :: rule not met

Q: Given the entry CCTAGCAGGCCCGGGTCACTCAAGCATTTCGCTT , answer whether its PBM binding z-score meets or surpasses 2.
Ans: rule met

Q: // same read-out, input: CCGACTGGGTCATAAGGTTACCATAAGCCAGCCC
Ans: rule met

Q: Similarly, GCGACTGGAGCATCAGCAGGTTACCATAACTTAA ?
Ans: rule not met

###

tested on: RARb:RXRa (NR concentration 270 nM, RXRa partner concentration 90 nM); experiment: PBM binding z-score (relative to random genomic background probes); higher = stronger binding; sequences stand for … in GC…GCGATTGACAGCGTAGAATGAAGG
Quick rule: PBM binding z-score of at least 2 means label 1, below that means label 0.

CGAACTAGGTCAAGGACAGGGAATCTCCGCACGC :: label 1
CCAACGAGGGCATGAGTTGATAGCAAATGCCGAT :: label 0
TAGCCTAGGTCAGGTCGGGCCAGTATACGCTATA :: label 1
TCTTGTAGATCAAGCAGGTTAAGAACGCCTGAGT :: label 0
CTCGAAAAGTCGTGCTCAGGTGAGTATACCAAAC :: label 0

Q: Decide: is the reported value of PBM binding z-score for TCGAGTAGGTTAGGGGCCTTCAGAATGGCGTCGA equal to or greater than 2?
Ans: label 0

Q: Please give the result for TGAATGAGGTTAAAAATCAGGGAACGTGGCGTCG too.
Ans: label 0

Q: Same read-out for TCATATAGGTAAATGGTAGGTGAAAGTCCGATCT ?
Ans: label 0

Q: Now consider ATCTCTAGGTAACCAAGTTCAGTCAATGCCGAAC .
Ans: label 0

Q: Can you check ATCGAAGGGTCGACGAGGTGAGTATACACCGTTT next?
Ans: label 1

Q: Try this sequence too: TAGCCCAGGTCATTCAGGGGCCAGTATAGAAAGC
Ans: label 1

###

test system: PPARg DBDmut IVT, anti-PPARg (DBD mutation: PPARg1 K132A/R137A, NR concentration 270 nM); assay: PBM binding z-score (relative to random genomic background probes); higher = stronger binding; sequences stand for … in GC…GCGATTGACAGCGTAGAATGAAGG
value-type: PBM binding z-score
Numbers only.

CGTCCAAGGTCAAAGGACAGTGAAGAGATGACGG :: 0.353

Go through the list and state PBM binding z-score for each entry.
1. TCTTGTAGATCGGCAGGTTAAGAAAGCTGGCCAA
2. TCTTGTAGATCAGCAGGTTAAGAACGCTGGCCAA
3. CTCGAAAGGTCGGTAGAGGTGAGTATACGGATAA
4. ATATGTAGGTTATGGGTCATTCAGGTTGGTTCGC
5. GATACAGGGTCAACGCCAGAGTACGCGTATTGAT
6. AGAACGAGGGCAATAAGTTGATAGCACGGGTGGC

Ans:
1. -0.268
2. -0.754
3. 0.272
4. 1.93
5. 0.699
6. -0.691

Answer for every listed entry: what is its PBM binding z-score? The entries follow.
1. ACTATTAGTTGAGACGAGGGCAAACGATAGGTTG
2. TGGCCTAGGTCATTGGGCCAGTATAGTACGCATC
3. CAAACTAGGTGACAGAGGTCAAAGTCCGTGCGTA
4. TATTGTAGATCAACAGGAGGTTAAGAAAGATCGA

Ans:
1.15
-1.26
0.411
1.13

Q: Quick check: PBM binding z-score of TCTTGTAGATCAATAGAGCTTAAGAAAGTGCGCT ?
Ans: 0.00059

###

test system: RARg homodimer (NR concentration 270 nM); experiment: PBM binding z-score (relative to random genomic background probes); higher = stronger binding; sequences stand for … in GC…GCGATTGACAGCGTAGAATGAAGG
Use condition met when the recorded PBM binding z-score is no lower than 3; use condition not met when it is lower.

Look over these answered cases.
GCCTGTAGATCAAGGTTAAGAAAGACTAAGCTAA :: condition not met
CCTCGGAGGACAACAGGAGGTAAGAGCTGCCAGA :: condition not met
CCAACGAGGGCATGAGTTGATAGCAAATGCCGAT :: condition not met
GCGATTGGGGCAAAGCAGGTTACCATAAGGTTGG :: condition not met

Q: // inclusive: PBM binding z-score at least 3? input: CCGACTGGGGCAGAAAGGTTTCCATACCATCCGG
Ans: condition not met

Q: And then TCACGGAGGACACGAAAGGTCAGAGCTCGACATC , what is it?
Ans: condition met

Q: Moving on to CATATTAGTTGACCATAAGGGCAACCGAAGCTCG
Ans: condition not met

Q: Next sequence up: CCTAGTTGGTCAGGAGGTCACACATCGGATATGA
Ans: condition met

###

tested on: PXR homodimer (NR concentration 270 nM); assay: PBM binding z-score (relative to random genomic background probes); higher = stronger binding; sequences stand for … in GC…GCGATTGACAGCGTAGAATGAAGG
value-type: PBM binding z-score
Numbers only.

Sample answers from the record:
CGTCAAAGTTCAATGTAACGTAACAGAAAGCAGC :: 4
TAGCCTAGGTCATGTGCCAGTATACCACGCGAAC :: -0.113
TCATATAGGTGAATGCTAGGTGAAAGTCCGATCT :: -0.173
TAGCCTAGGTCATGCAGGCCAGTATAGTGTCGGC :: -0.409
TCTCGGAGGACACGAAAGGTCAGAGATCGACATC :: 0.205
ATGTGTAGGTTAGCTGGGGTCATTCAGACTAGGC :: 5.39
TCTTGTAGATCAATAGAGGTTGAGAAAGTGCGCT :: -0.0662
GCTGGCAGGCCATTTGGGTCACTCAATGACGGGC :: 0.117

Provide PBM binding z-score values for the following items, in order.
1. ATCGAAAGTTCGTGAGGTGAGTATACAGAAAGGC
2. GCAACGAGGGCAAGTTGATAGCAGAGTTTGATGG
3. CCGACTGGGCCACGAAAGGTCATTGATTCAGTGA
4. AGTCAAAGTTCACCAGGTAACGTAAGATTCAGCT

Ans:
0.69
0.464
0.941
2.63

###

test system: LXRa homodimer (NR concentration 270 nM); test: PBM binding z-score (relative to random genomic background probes); higher = stronger binding; sequences stand for … in GC…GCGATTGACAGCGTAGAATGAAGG
Give PBM binding z-score for every item shown.
One number for each entry.

As a guide, the following entries are already answered.
CCAGACAGGTGAAAGTTAACTCAGTCTGGTACGC :: -0.419
TCTTCTAGATCAGCAGGTTAAGAAAGCTGGCCAA :: -0.37
CAAACTAGGTCACCTGAAGGTCAAAGTCCGCATG :: 5.41
ACTATTAGTTGAGACGAAGGCAACCGATAGGTTG :: -0.315
CTCGAAAGGTCGTGCTCAGGTTAGTATACCAAAC :: 0.511

Each of the following entries comes with a recorded value; kindly state PBM binding z-score for each.
1. TCTGCTAGGTCAACGATTGTCAGCTAATCTGCTA
2. TCATATAGGTAAAAGGTGAATGTCGGTGTGGTAA
3. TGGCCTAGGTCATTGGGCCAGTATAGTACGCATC
4. GCTAGTTGGTCAGTAAAAGGTCCCACACCGGTCG
5. TCATATAGATAAAAGGTGAAAGTCGGTGTGGTAA

Ans:
-0.0951
0.481
-0.242
-0.431
0.231

For each of the items listed, what is its PBM binding z-score?
1. CAAACTAGTTCACCGGAAGGTCAAAGTCCGCATG
2. ATCGCAAGGTCGACGAGGTGAGTATACACCGTTT

Ans:
1: 4.71; 2: -0.778
